# TARGET_SYSTEM: hSSB1 (Homo sapiens, UniProt Q9BQ15 Q9BQ15:1-211)
# Sequence (Q9BQ15 whole entry, one chain of several): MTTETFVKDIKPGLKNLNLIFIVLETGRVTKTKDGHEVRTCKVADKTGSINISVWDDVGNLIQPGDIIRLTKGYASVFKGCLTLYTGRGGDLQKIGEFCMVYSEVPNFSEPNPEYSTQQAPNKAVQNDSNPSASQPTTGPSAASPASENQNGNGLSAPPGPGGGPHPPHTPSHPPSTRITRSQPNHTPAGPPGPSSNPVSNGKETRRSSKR
# EXPERIMENTAL_DETAILS: SPR
MEASURED_ATTRIBUTE: binding signal

Look up binding signal for this binder: GUGCAUGGAAUCACGGA (ssRNA, 2'-OMe all, full PS) [Open_A 3' truncation 17 nt]
2.06 normalized Rmax

Requested field: binding signal. Item: CCACUGAGCCCGACUUCCCU (ssRNA, 2'-OMe all, full PS) [DKLS459520 (SEQ 60)]
0.63 normalized Rmax

Look up binding signal: AGAGGCAGCAGUACGACG (ssRNA, 2'-OMe all, full PS) [LSA_ATG both-end truncation 18 nt]
0.96 normalized Rmax

Returns the measured binding signal for the input binder. Input: CCUGUCAGCCGCACUUGCCU (ssRNA, 2'-OMe all, full PS) [DKLS463357 (SEQ 59)]
0.95 normalized Rmax

# credit: patent US20200230168
